Provenance of the data: patent US20050008695A1

assay: Hydrolysis rate (half-life) in human plasma; type: in vitro ADME; conditions: read-out: Hydrolysis Rate (half life t½) In Human Plasma (converted)
ASSAY_METRIC: half-life (h)
Please give a number only; it is taken to be in h.

{"COMPOUND": "CC1COc2c(N3CCN(C)CC3)c(F)cc3c(=O)c(C(=O)OCCOCCOC(=O)Cc4ccccc4Nc4c(Cl)cccc4Cl)cn1c23 (centres unmarked) [Diclofenac-Ofloxacin]", "half-life (h)": 6.5}

Give its half-life value. Item: CC1(C)O[C@@H]2CC3C4C[C@H](F)C5=CC(=O)C=CC5(C)[C@@]4(F)CCC3(C)[C@]2(C(=O)COC(=O)Cc2ccccc2Nc2c(Cl)cccc2Cl)O1 (some centres unmarked) [Diclofenac-Fluocinolone Acetonide] 168

* * *

experiment: Hydrolysis rate (half-life) in buffer, pH 7.4; type: physicochemical; conditions: read-out: Hydrolysis Rate (half life t½) In Buffer, pH7.4 (converted)
ASSAY_METRIC: half-life (h)
Write it as a number; the unit h goes unstated.

Reported half-life, compound O=C(Cc1ccccc1Nc1c(Cl)cccc1Cl)OCCOCCOCCOCCO [Diclofenac-PEG4] : ____ 168

* * *

experiment: Hydrolysis rate (half-life) in buffer, pH 7.4; format: physicochemical; details: read-out: Hydrolysis Rate (half-life t½) In Buffer, pH7.4 (converted)
ASSAY_METRIC: half-life (h)
Field format: number, assumed h, no unit text.

{"COMPOUND": "CC1(C)O[C@@H]2CC3C4C[C@H](F)C5=CC(=O)C=CC5(C)[C@@]4(F)CCC3(C)[C@]2(C(=O)COC(=O)Cc2ccccc2Nc2c(Cl)cccc2Cl)O1 (some centres unmarked) [Diclofenac-Fluocinolone Acetonide]", "ASSAY_METRIC": "half-life", "UNIT_INFO": "h", "VAL": 15}

Which half-life reading was recorded for the compound O=C(Cc1ccccc1Nc1c(Cl)cccc1Cl)OCc1oc(=O)oc1COC(=O)Cc1ccccc1Nc1c(Cl)cccc1Cl [Diclofenac Dimer] ? 25

* * *

# half-life annotations
assay: Hydrolysis rate (half-life) in human plasma; assay type: in vitro ADME; details: read-out: Hydrolysis Rate (half-life t½) In Human Plasma
Answer format: numeric, min implied, no suffix.

{"MOLECULE": "O=C(Cc1ccccc1Nc1c(Cl)cccc1Cl)OCCOCCOCCOCCO [Diclofenac-PEG4]", "UNIT_INFO": "min", "half-life": 10}

Now let's try a different one.
# half-life lookup, item O=C(Cc1ccccc1Nc1c(Cl)cccc1Cl)OCc1oc(=O)oc1COC(=O)Cc1ccccc1Nc1c(Cl)cccc1Cl [Diclofenac Dimer] 6
